Assignment: determine reported MIC for the given molecules.
Tested on: EKO-35 araC::acrD Pore
Return type: number; implicit unit µg/mL.

(Q) What does the record list as MIC for "CC(=O)NC[C@H]1CN(c2ccc(N3CCOCC3)c(F)c2)C(=O)O1" ?
(A) 7.81

(Q) Return reported MIC; argument: "O=C(O)c1cn(C2CC2)c2cc(N3CCNCC3)c(F)cc2c1=O"
(A) 0.002

(Q) // query MIC value for entry "CO[C@@H]1[C@@H](OC(N)=O)[C@@H](O)[C@H](Oc2ccc3c(O)c(NC(=O)c4ccc(O)c(CC=C(C)C)c4)c(=O)oc3c2C)OC1(C)C"
(A) 25

(Q) Fill in the blank: the reported MIC of "C[C@@H]1O[C@@H]1P(=O)(O)O" is ____.
(A) 0.781

(Q) Query (molecule): "NC[C@H]1O[C@H](O[C@H]2[C@H](O)[C@@H](O[C@H]3O[C@H](CO)[C@@H](O)[C@H](N)[C@H]3O)[C@H](N)C[C@@H]2N)[C@H](O)[C@@H](O)[C@@H]1O" ; field requested: MIC
(A) 1.56

(Q) Data request, read-out MIC, for "CC(=O)O[C@H]1C[C@@]2(C)[C@@H](C[C@@H](O)[C@H]3[C@@]4(C)CC[C@@H](O)[C@@H](C)[C@@H]4CC[C@@]32C)/C1=C(\CCC=C(C)C)C(=O)O"
(A) 12.5

(Q) I'd like to know its MIC. The molecule in question is "[H]/N=C(\N/C(=N/[H])NCCCCCCNC(=N)NC(=N)Nc1ccc(Cl)cc1)Nc1ccc(Cl)cc1"
(A) 0.391

* * *

Measurement type: MIC (mg/L)
Report the figure in mg/L without appending any unit label.

(Q) API: value(readout= MIC, system= EKO-35 araC::mexCD Pore, query= CO[C@@H]1[C@@H](OC(N)=O)[C@@H](O)[C@H](Oc2ccc3c(O)c(NC(=O)c4ccc(O)c(CC=C(C)C)c4)c(=O)oc3c2C)OC1(C)C [novobiocin] )
(A) 3.12

(Q) Could you share what MIC was measured for CO[C@H]1/C=C/O[C@@]2(C)Oc3c(C)c(O)c4c(O)c(c(/C=N/N5CCN(C)CC5)c(O)c4c3C2=O)NC(=O)/C(C)=C\C=C\[C@H](C)[C@H](O)[C@@H](C)[C@@H](O)[C@@H](C)[C@H](OC(C)=O)[C@@H]1C [rifampicin] , tested on EKO-35 araC::mexCD Pore?
(A) 0.391

(Q) Param readout= MIC; system= EKO-35 araC::mexCD Pore; entry= NC[C@H]1O[C@H](O[C@H]2[C@H](O)[C@@H](O[C@H]3O[C@H](CO)[C@@H](O)[C@H](N)[C@H]3O)[C@H](N)C[C@@H]2N)[C@H](O)[C@@H](O)[C@@H]1O [kanamycin] ; returns value.
(A) 1.56

(Q) Lookup: MIC / EKO-35 araC::mexCD Pore / [H]/N=C(/N)N[C@H]1[C@H](O)[C@@H](O)[C@H](O[C@@H]2O[C@@H](C)[C@](O)(C=O)[C@H]2O[C@@H]2O[C@@H](CO)[C@H](O)[C@@H](O)[C@@H]2NC)[C@@H](N/C(N)=N\[H])[C@@H]1O [Streptomycin]
(A) 3.12

(Q) State its MIC on EKO-35 araC::mexCD Pore: COc1cccc2c1C(=O)c1c(O)c3c(c(O)c1C2=O)C[C@@](O)(C(=O)CO)C[C@@H]3O[C@H]1C[C@H](N)[C@H](O)[C@H](C)O1 [doxorubicin]
(A) 3.12

(Q) Please state recorded MIC (tested on EKO-35 araC::mexCD Pore) of CCn1cc(C(=O)O)c(=O)c2ccc(C)nc21 [nalidixic acid]
(A) 2.5
